This collection of values is drawn from the supplement of paper PMC13380429.

Please go through the items and note down their cell viability.
Test system: U2OS
Assay: cell viability relative to DMSO; higher = less toxic
Settings: 72 h; 1000 nM

query: Recorded cell viability for O=C(O)c1cc(O)c2c(Cl)cc(Cl)cc2n1 [5,7-dichlorokynurenic-acid] with U2OS, please?
result: 103%

query: Recorded cell viability for CC(C)CC(N)=O [isovaleramide] with U2OS, please?
result: 89.1%

query: Recorded cell viability for [NH-]c1c[n+](N2CCOCC2)no1 [linsidomine] with U2OS, please?
result: 96.3%

query: Recorded cell viability for OCc1cc(C(O)CNCCCCCCOCCCCc2ccccc2)ccc1O (stereo not given) [salmeterol] with U2OS, please?
result: 99.3%

query: Recorded cell viability for CN[C@@H](C)C(=O)N[C@H]1CCCC[C@H]2CC[C@@H](C(=O)N[C@@H](c3ccccc3)c3cn(CCCCc4ccc(CCCCn5cc([C@@H](NC(=O)[C@@H]6CC[C@@H]7CCCC[C@H](NC(=O)[C@H](C)NC)C(=O)N76)c6ccccc6)nn5)cc4)nn3)N2C1=O [SM-164] with U2OS, please?
result: 98.8%
